Target: T1, soluble human GPNMB (recombinant extracellular domain) (human, UniProt Q14956 23-498)
T1 construct: also called huGPNMB; recombinant human GPNMB extracellular domain; not shown: C-terminal polyhistidine or Avi-His tag
T1 sequence: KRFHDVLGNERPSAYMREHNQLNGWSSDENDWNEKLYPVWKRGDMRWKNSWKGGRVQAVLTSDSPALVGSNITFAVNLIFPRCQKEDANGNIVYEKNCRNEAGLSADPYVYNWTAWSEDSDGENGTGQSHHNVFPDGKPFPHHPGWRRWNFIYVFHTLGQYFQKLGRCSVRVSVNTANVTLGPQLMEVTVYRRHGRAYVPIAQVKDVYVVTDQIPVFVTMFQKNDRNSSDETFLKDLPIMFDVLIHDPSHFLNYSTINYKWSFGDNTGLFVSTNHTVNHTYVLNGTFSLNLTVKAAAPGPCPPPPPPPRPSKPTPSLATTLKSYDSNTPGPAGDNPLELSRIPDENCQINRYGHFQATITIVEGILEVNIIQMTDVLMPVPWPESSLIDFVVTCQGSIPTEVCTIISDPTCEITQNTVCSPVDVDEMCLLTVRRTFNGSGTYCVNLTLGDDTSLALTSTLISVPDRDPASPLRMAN
Assay: SPR Carterra, Ab immobilized
Hi there, I'd appreciate the recorded kon for every entry that follows.
Note: unit M⁻¹ s⁻¹ is implicit; provide only the numeric part.

Noted for anti-GPNMB antibody GPN-22 (antibody, human IgG1, V domains shown, chimeric) VH: QVQLQQPGAERVKPGASVKMSCKASGYTFTSYWITWVKQRPGQGLEWIGDIFPGSGSTNYHEKFKSKATLTVDTSSSTAYMQLSSLTSEDSAVYYCSRGYFGSSFSDYWGQGTSVTVSS VL: DIQMTQSPSSLSASLGERVSLTCRTSQEISGYLSWLQQKPDGTIKRLIYSTSTLDSGVPKRFSGSRSGSDYSLTISSLESEDFADYYCLQYASSPPTFGSGTKLEIK : its kon reads 28000

Noted for anti-GPNMB antibody GPN-48 (antibody, human IgG1, V domains shown, chimeric) VH: QVQLQQSGPELVKPGASVKLSCRASGYGFSSFWMNWVKQRPGKGLEWIGRIYPGKGDTLYNGKFKDKATLTADESSSTAYMQLSSLTSEDSAVYFCARSIYYYDYWYFDVWDTGTTVTVSS VL: DIVMTQSHKFMSTSVGDRVNITCKASQDVNSAIAWYQQKPGQSPKLLIYSASYRFIGVPDRFTGSGSGTGFTFTISSVQAEDLAVYYCQQHYTTPLTFGAGTKLELK : its kon reads 330000
